System: XF498
Experiment: NCI tumour cell line growth inhibition, 48 h
The source made the active and inactive calls. Rule as the data show it: active = GI50 up to about 1.1 µM and inactive = higher.
Thanks in advance; please answer with one of these: YES for active, NO for inactive

Record excerpt, results attached:
[
  {
    "Compound": "CCN1/C(=C/C(C)=C/c2sc3ccccc3[n+]2CC)Sc2ccccc21",
    "Assigned Class": "YES"
  },
  {
    "Compound": "COC(=O)CC(=O)OC1C[C@@H]2CCC3C(C)(C)CCC[C@]3(C)C23CC[C@@]1(C)C3 (stereo not given in full)",
    "Assigned Class": "NO"
  },
  {
    "Compound": "CCCN(CCC)C(=O)c1nc(N)nc(-c2ccc(OC)cc2)c1-c1ccc(OC)cc1",
    "Assigned Class": "NO"
  },
  {
    "Compound": "Nc1nc(S)nc(C(=O)Nc2ccc(Cl)c(Cl)c2)c1-c1ccc(Cl)cc1",
    "Assigned Class": "NO"
  }
]

For the next question, use this compound.
Hi team, can someone confirm the assay call for CS(=O)(=O)OCCN1CCN(C(=O)c2cccc3c(Nc4ccc(S(N)(=O)=O)cc4)c4ccccc4nc23)CC1 ? NO

* * *

Test system: PC-3
Experiment: NCI tumour cell line growth inhibition, 48 h
The source made the active and inactive calls. No stated cut-off is given here; in the data, active = GI50 up to about 1.1 µM and inactive = higher.
Listing of entries alongside the reported GI50.

Requested read-out GI50, target or system PC-3, entry Cc1ccc(S(=O)(=O)NC(=O)NNc2ccc(F)cc2)cc1 > 100 µM (inactive)

Requested read-out GI50, target or system PC-3, entry Cc1c2c(n(C)c1C)C(=O)C1C(C2=O)C2(C)c3ccccc3C1(C)c1ccccc12 (configuration not stated) > 100 µM (inactive)

* * *

Tested on: Hs-578T
Assay: NCI tumour cell line growth inhibition, 48 h
Active and inactive are the calls of the source. Cut-off read from the data, not from the text of the source: active = GI50 up to about 1.1 µM and inactive = higher.
Thanks in advance; please answer with one of these: active, inactive

Record excerpt, results attached:
[
  {
    "Molecule": "CCN(CC)C(=S)N/N=C(/c1ccccc1)c1ccccn1",
    "Measured Target": "Hs-578T",
    "Assigned Class": "inactive"
  },
  {
    "Molecule": "CCOC(=O)C(C)(C)/C=C\\C(Cl)=C(Cl)Cl",
    "Measured Target": "Hs-578T",
    "Assigned Class": "inactive"
  },
  {
    "Molecule": "Cc1c2cccc-2c2cc(O)c3ccccc3c2n1-c1ccc(N(C)C)cc1",
    "Measured Target": "Hs-578T",
    "Assigned Class": "inactive"
  },
  {
    "Molecule": "C[N+](C)(C)CC1CCCc2ccccc2C1=O (stereo unspecified)",
    "Measured Target": "Hs-578T",
    "Assigned Class": "inactive"
  },
  {
    "Molecule": "Nc1nnnn1NC(=O)NCCCl",
    "Measured Target": "Hs-578T",
    "Assigned Class": "inactive"
  },
  {
    "Molecule": "COc1ccc2nc3c(C)cc4ccccc4n3c2c1",
    "Measured Target": "Hs-578T",
    "Assigned Class": "inactive"
  },
  {
    "Molecule": "O=C(NCCNCCNCCNC(=O)c1cc(-c2ccccc2)nc2ccccc12)c1cc(-c2ccccc2)nc2ccccc12",
    "Measured Target": "Hs-578T",
    "Assigned Class": "inactive"
  },
  {
    "Molecule": "COc1ccc(Nc2nc(N)c(C(=O)c3ccccc3)s2)cc1",
    "Measured Target": "Hs-578T",
    "Assigned Class": "active"
  }
]

Hi team, can someone confirm the assay call for Cn1nc2ccc(Nc3cc(=O)[nH]c4ccc5nn(C)nc5c34)cc2n1 ? inactive

Hi team, can someone confirm the assay call for O=C1C2=C(SCCS2)C(=O)c2c(Sc3ccc(Cl)cc3)c(Sc3ccc(Cl)cc3)c(Sc3ccc(Cl)cc3)c(Sc3ccc(Cl)cc3)c21 ? inactive

Hi team, can someone confirm the assay call for N=C(N)N/N=C/c1c(-c2ccc(N)cc2)nc2sccn12 ? inactive

* * *

Listing of entries alongside the reported GI50.
Test system: SF-539
Test: NCI tumour cell line growth inhibition, 48 h
The source made the active and inactive calls. Rule as the data show it: active = GI50 up to about 1.1 µM and inactive = higher.

[
  {
    "Compound": "CCN(CC)Cc1c(/C=C\\c2cc(OC)c(OC)c(OC)c2)ccc(OC)c1O",
    "GI50": "2.29 µM (inactive)"
  }
]

In the following, a different compound is considered.
Which value of GI50 has been reported for O=C1NN=CN2C(=O)CCC12 (stereo not given) in the records? > 100 µM (inactive)

* * *

System: SF-295
Experiment: NCI tumour cell line growth inhibition, 48 h
The source made the active and inactive calls. No stated cut-off is given here; in the data, active = GI50 up to about 1.1 µM and inactive = higher.
Thanks in advance; please answer with one of these: active, inactive

Record excerpt, results attached:
[
  {
    "Compound": "COc1cc(O)c(C(=O)/C=C/c2ccc(OC)c(OCc3ccccc3)c2)c(OC)c1",
    "Assigned Class": "active"
  },
  {
    "Compound": "O=C1NN=CN2C(=O)CCC12 (stereo unspecified)",
    "Assigned Class": "inactive"
  },
  {
    "Compound": "Nc1nc(N)c2nc(CN(C=O)c3ccc(C(=O)O)cc3)cnc2n1",
    "Assigned Class": "inactive"
  }
]

Hi team, can someone confirm the assay call for CC1S/C(=N/c2nnc(-c3ccccc3)o2)NC1=O (stereo unspecified) ? inactive

Hi team, can someone confirm the assay call for CC[n+]1c(/C=C/c2ccc(N(CCCl)CCCl)cc2)ccc2cc(NC(=O)/C=C/c3ccccc3)ccc21 ? active

Hi team, can someone confirm the assay call for CCN(CC)CCCNc1ccc2nc(C)n3c4ccc(O)cc4c(=O)c1c23 ? inactive

Hi team, can someone confirm the assay call for NC(=O)NC(=O)CCC(NS(=O)(=O)c1ccccc1)C(=O)NC(N)=O (stereo unspecified) ? inactive

Hi team, can someone confirm the assay call for CCN1CN(c2ccccc2)C2(CCN(CCCSc3ccc(F)cc3)CC2)C1=O ? inactive

* * *

Listing of entries alongside the reported GI50.
Tested on: NCI/ADR-RES
Assay: NCI tumour cell line growth inhibition, 48 h
Calls of active or inactive are those of the source. Cut-off read from the data, not from the text of the source: active = GI50 up to about 1.1 µM and inactive = higher.

[
  {
    "Molecule": "CCCCOCn1c(=O)[nH]c(=O)c2ccccc21",
    "Result": "22.8 µM (inactive)"
  },
  {
    "Molecule": "CC1=NN(c2cccc(Cl)c2)C2(SCC(=O)N2c2nc3ccccc3s2)/C1=C\\c1cccs1 (stereo unspecified)",
    "Result": "21.9 µM (inactive)"
  },
  {
    "Molecule": "O=[N+]([O-])c1ccc2nc3n(c2c1)C(c1c(F)cccc1F)SC3 (stereo unspecified)",
    "Result": "> 100 µM (inactive)"
  },
  {
    "Molecule": "O=C1c2ccccc2NC(c2cc(Cl)cc(Cl)c2O)N1CCc1ccccn1 (stereo unspecified)",
    "Result": "60.4 µM (inactive)"
  }
]

Which value of GI50 has been reported for CCOP(=O)(CC1CC(O)(CNc2cc(Cl)nc(N)n2)C1)OCC (stereo unspecified) in the records? > 100 µM (inactive)

Which value of GI50 has been reported for CCCCC(CC)C(=O)Oc1ccc(C(=O)c2ccccc2)c(O)c1 (stereo unspecified) in the records? 35.9 µM (inactive)

* * *

Listing of entries alongside the reported GI50.
Test system: M19-MEL
Experiment: NCI tumour cell line growth inhibition, 48 h
Calls of active or inactive are those of the source. Cut-off read from the data, not from the text of the source: active = GI50 up to about 1.1 µM and inactive = higher.

In the examples that follow, each entry is paired with its recorded GI50.
[
  {
    "Molecule": "N/C(S)=N/N=C/c1ncccc1O",
    "GI50": "1.91 µM (inactive)"
  },
  {
    "Molecule": "CCc1cc(C)cc2[n+]1CC=C2.[O-][Cl+3]([O-])([O-])[O-]",
    "GI50": "13.8 µM (inactive)"
  },
  {
    "Molecule": "O=[N+]([O-])c1ccc(-c2noc(-c3ccc(Cl)cc3)c2C2=NCCN2)cc1",
    "GI50": "> 100 µM (inactive)"
  },
  {
    "Molecule": "Nc1c(S(=O)(=O)O)cc(S(=O)(=O)O)c2ccc(/N=N/c3ccc(/C=C/c4ccc(/N=N/c5ccc6c(S(=O)(=O)O)cc(S(=O)(=O)O)c(N)c6c5O)cc4S(=O)(=O)O)c(S(=O)(=O)O)c3)c(O)c12",
    "GI50": "> 100 µM (inactive)"
  },
  {
    "Molecule": "N#C/C(=C1\\OC(=O)C(c2ccc(Br)cc2)=C1O)c1ccc(Br)cc1",
    "GI50": "14.6 µM (inactive)"
  }
]

Which value of GI50 has been reported for CC12CC(=O)OC(Cc3ccccc31)O2 (stereo not given) in the records? > 100 µM (inactive)

Which value of GI50 has been reported for CCN(CC)CCCNc1ccc2nc(C)n3c4ccc(O)cc4c(=O)c1c23 in the records? 10.6 µM (inactive)

Which value of GI50 has been reported for Fc1cccc(C2SCc3nc4ccccc4n32)c1 (stereo not given) in the records? 51.4 µM (inactive)

Which value of GI50 has been reported for C=CCN(C)CN(C)c1nc(N(C)C)nc(N(C)C)n1 in the records? > 100 µM (inactive)

Which value of GI50 has been reported for CCOC(=O)CCc1c(C)c2c(O)cc(O)cc2oc1=O in the records? > 100 µM (inactive)
